Please go through the items and note down their pIC50.
# TEST_SYSTEM: UniProtKB P50053
# Sequence (P50053 whole entry): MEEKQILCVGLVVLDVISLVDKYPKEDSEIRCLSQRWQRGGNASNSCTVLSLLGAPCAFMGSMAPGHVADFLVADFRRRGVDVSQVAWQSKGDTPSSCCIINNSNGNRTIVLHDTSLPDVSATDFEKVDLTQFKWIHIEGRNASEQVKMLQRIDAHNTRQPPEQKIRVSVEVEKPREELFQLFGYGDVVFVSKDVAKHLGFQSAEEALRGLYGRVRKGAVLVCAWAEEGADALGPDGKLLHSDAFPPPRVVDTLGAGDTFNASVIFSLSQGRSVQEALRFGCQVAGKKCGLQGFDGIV
# ASSAY_PROCEDURE: Inhibition of recombinant human N-terminal His-tagged KHK expressed in Escherichia coli BL21(DE3) using fructose as substrate incubated for 30 mins followed by ATP addition measured for 30 mins by pyruvate kinase-lactate dehydrogenase coupled enzyme assay
# CONDITIONS: read-out: IC50
Please keep in mind that pIC50 is minus log10 of the molar concentration; only the number is needed.

Quick check: pIC50 of Cc1c[nH]c2ncnc(N3CCC[C@@H](CO)C3)c12 ?
3.93

Quick check: pIC50 of C[C@@]1(O)CCN(c2c(C#N)c(C(F)(F)F)nc3cc[nH]c23)C1 ?
4.62

Quick check: pIC50 of CCc1cc2nc(C(F)(F)F)c(C#N)c(N3CCC(C)(O)C3)c2[nH]1 (racemic) ?
5.83

Quick check: pIC50 of N#Cc1c(C(F)(F)F)cc(N2CCN(CCO)CC2)nc1N1CCCC(CO)C1 (centres undefined) ?
4.77

Quick check: pIC50 of C[C@]1(O)CCN(c2nc(N3CCN(CCO)CC3)cc(C(F)(F)F)c2C#N)C1 ?
5.99

Quick check: pIC50 of Cc1cc(C)c(C#N)c(N2CCOCC2)n1 ?
3.50

Quick check: pIC50 of C[C@]1(O)CCN(c2c(C#N)c(C(F)(F)F)nc3cc[nH]c23)C1 ?
6.17

Quick check: pIC50 of Oc1nc2ccccc2nc1C(F)(F)F ?
4.00

These entries and their values trace back to ChEMBL document CHEMBL4017511.
